From: PubChem BioAssay (NCI)

- Tested on: SF-295 CNS
- Experimental Protocol: NCI tumour cell line growth inhibition, 48 h
Can you tell me TGI for the items I'm about to list?

Ask: Give the measured TGI of C/C(=N\NS(=O)(=O)c1ccc(C)cc1)c1cc2ccccc2n1C .
Result: > 100 µM

Ask: Give the measured TGI of COc1cc(OC)c2c(=O)c(OC)c(-c3ccc4c(c3)OCO4)oc2c1OC .
Result: > 100 µM

Ask: Give the measured TGI of Fc1ccc(-c2nn3c(-c4cc(C(F)(F)F)cc(C(F)(F)F)c4)nnc3s2)cc1 .
Result: > 50 µM

Ask: Give the measured TGI of COc1ccc(N2C(=O)c3c(c4[nH]c5ccc(OC)cc5c4c4ccc(C(C)(C)C)cc34)C2=O)cc1 .
Result: > 100 µM

Ask: Give the measured TGI of CSc1ccc(OCC2OC2O)cc1 (stereo unspecified) .
Result: > 100 µM

Ask: Give the measured TGI of O=C(Nc1ccc(Sc2ccc(N=Nc3c(O)c(S(=O)(=O)O)cc4cc(S(=O)(=O)O)ccc34)cc2)cc1)c1ccc(N=Nc2c(O)ccc3c(S(=O)(=O)O)cc(S(=O)(=O)O)cc23)cc1 .
Result: > 100 µM

Ask: Give the measured TGI of NCCCn1c2c(c3ccc([N+](=O)[O-])cc3c1=O)C(=O)c1cc(-c3ccccc3)ccc1-2 .
Result: 3.45 µM

Ask: Give the measured TGI of C[N+](C)(C)/N=C/c1ccc(O)c(O)c1 .
Result: > 100 µM

Ask: Give the measured TGI of COC(=O)C1=CC2CC1C(S(=O)(=O)c1ccccc1)C2S(=O)(=O)c1ccccc1 (stereo unspecified) .
Result: 53.8 µM

Ask: Give the measured TGI of O=C(/C=C/c1ccccc1Cl)c1cccc2ccccc12 .
Result: 25.4 µM

Ask: Give the measured TGI of COc1cccc(-n2cc(-c3nc(Nc4cc(C)[nH]n4)c4ccccc4n3)nn2)c1 .
Result: 11 µM

Ask: Give the measured TGI of Clc1nc(Cl)c2c3c(sc2n1)CCCC3 .
Result: > 100 µM

Ask: Give the measured TGI of CC(C)(CCN=C(N)Nc1ccccn1)c1ccc(C(F)(F)F)cc1 .
Result: 29.3 µM

Ask: Give the measured TGI of CCOc1ccc2c(C)cc(=O)oc2c1 .
Result: > 100 µM

Ask: Give the measured TGI of COc1cccc(NC(=O)C(C)(C)C)c1SSc1c(NC(=O)C(C)(C)C)cccc1OC .
Result: > 100 µM

Ask: Give the measured TGI of CC(C)=CCC1=C(OCC(=O)O)C(=O)c2ccccc2C1=O .
Result: 41.4 µM

Ask: Give the measured TGI of O=S(=O)(c1ccc(Br)cc1)N1CCN(S(=O)(=O)c2ccc(Br)cc2)CC1 .
Result: > 100 µM

Ask: Give the measured TGI of CCCCCc1cc[n+](CC(=O)c2ccc([N+](=O)[O-])cc2)cc1 .
Result: 24.3 µM

Ask: Give the measured TGI of N#CC1(Nc2ccc(-c3ccc(NC4(C#N)CCCC4)cc3)cc2)CCCC1 .
Result: > 100 µM

Ask: Give the measured TGI of Cn1c2ccccc2c(=O)c2c(O)cc3c(c21)CC(C1(C)CO1)O3 (stereo unspecified) .
Result: 39.2 µM

Ask: Give the measured TGI of O=c1c(C2=NCCC2)c(-c2ccc[nH]2)[nH]n1-c1ccccc1 .
Result: > 100 µM
